From: the RepoRT retention time repository (doi:10.1016/j.scitotenv.2015.08.078)

test: RP, Waters ACQUITY UPLC BEH C18, 100 × 2.1 mm, 1.7 µm, 0.3 mL/min, estimated dead time 0.73 min; A: water + 0.1% formic acid, pH 3; B: methanol + 0.1% formic acid, pH 3; gradient (min/%B) 0/10 14/90 16/90 18/10; conditions: stereoisomer not certain
Below is a list of entries, each paired with its recorded LC retention time value.
Quick reminder: number only, in min, skip the unit.

{"columns": ["compound", "LC retention time, min"],
 "data": [
  ["O=c1[nH]c2c(c(=O)n1C1CCCCC1)CCC2", 8.9],
  ["C=CC1(C)CC(OC(=O)CSCCN(CC)CC)C2(C)C(C)CCC3(CCC(=O)C32)C(C)C1O (stereo not drawn)", 9.22]
]}

Here is another compound to look at.
### Prompt Answer with reported LC retention time of `Cc1cccc(C)c1N(Cn1cccn1)C(=O)CCl`
### Response 8.95
